method_description: in vivo
Design: species or system BALBc mice
condition_details: mouse, topical or ocular, Liver Se
observation_type: concentration at 6552 h (ng/g)
The reply should be a number in ng/g, with the unit left off.

Query string: Recorded concentration at 6552 h of C[Se]CC[C@H](N)C(=O)O , please.
Result string: 1420

* * *

method_description: in vivo
Parameters: species or system BALBc mice
condition_details: mouse, po, Ventral skin Se
From the text: To determine the effectiveness of selenium supplementation in the form of topical application and oral administration of L-selenomethionine in providing protection for ultraviolet radiation-induced skin damage, 120 BALB-C female mice and 40 female Skh:2 hairless, pigmented, dark-eyed mice were obtained and separated into treatment groups as follows: During the treatment, the BALB-C mice were shaved on the back one per week. […]
observation_type: concentration at 6552 h (ng/g)
The response must be a number in ng/g with no trailing unit.

Query string: # query: concentration at 6552 h of entry C[Se]CC[C@H](N)C(=O)O [L-selenomethionine]
Result string: 508

* * *

method_description: tissue Se in BALBC mice after 3 months
condition_details: mouse, in vivo, topical or ocular, tissue Se, dorsal skin
observation_type: concentration at 2190 h (ng/g)
Entry rule: numbers only, all in ng/g.

Query string: What does the record list as concentration at 2190 h for C[Se]CC[C@H](N)C(=O)O [L-selenomethionine] ?
Result string: 4520

* * *

method_description: tissue Se in BALBC mice after 3 months
condition_details: mouse, in vivo, po, tissue Se, dorsal skin
observation_type: concentration at 2190 h (ng/g)
Give your result in ng/g as a bare value.

Query string: What concentration at 2190 h value was documented for this compound, C[Se]CC[C@H](N)C(=O)O [L-selenomethionine] ?
Result string: 913

* * *

method_description: tissue Se in BALBC mice after 3 months
condition_details: mouse, in vivo, topical or ocular, tissue Se, liver
observation_type: concentration at 2190 h (ng/g)
Could you give me the number in ng/g? Just the number is fine.

Query string: Which measured concentration at 2190 h value corresponds to C[Se]CC[C@H](N)C(=O)O [L-selenomethionine] ?
Result string: 2240

* * *

method_description: tissue Se in BALBC mice after 3 months
condition_details: mouse, in vivo, po, tissue Se, liver
observation_type: concentration at 2190 h
Write the figure, then the unit, nothing else.

Query string: Given C[Se]CC[C@H](N)C(=O)O [L-selenomethionine] , state its recorded concentration at 2190 h.
Result string: 1600 ng/g

* * *

method_description: tissue Se in BALBC mice after 3 months
condition_details: mouse, in vivo, po, tissue Se, ventral skin
observation_type: concentration at 2190 h (ng/g)
Return type: number; implicit unit ng/g.

Query string: Field request: concentration at 2190 h | item: C[Se]CC[C@H](N)C(=O)O [L-selenomethionine]
Result string: 728

From: patent US4865840A
